# reported IC50; entries follow
# system: hGOAT (Homo sapiens)
# Construct: made in house; host or cells: Sf9 insect cells (membrane fraction)
# Sequence (Q96T53 whole entry): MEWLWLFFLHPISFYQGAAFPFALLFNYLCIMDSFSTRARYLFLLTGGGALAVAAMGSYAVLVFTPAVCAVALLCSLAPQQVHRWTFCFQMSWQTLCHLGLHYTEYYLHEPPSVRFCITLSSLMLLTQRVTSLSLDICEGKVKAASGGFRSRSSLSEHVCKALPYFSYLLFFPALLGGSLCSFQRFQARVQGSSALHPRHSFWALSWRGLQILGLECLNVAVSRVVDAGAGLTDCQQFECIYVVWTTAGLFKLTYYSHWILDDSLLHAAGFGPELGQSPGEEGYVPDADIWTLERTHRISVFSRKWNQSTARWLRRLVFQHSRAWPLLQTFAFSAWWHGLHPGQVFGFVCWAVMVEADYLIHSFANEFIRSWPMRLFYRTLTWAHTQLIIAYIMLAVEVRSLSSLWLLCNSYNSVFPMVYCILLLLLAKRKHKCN
# test description: fluorescence-based in vitro hGOAT activity assay (ghrelin octanoylation, HPLC readout)
# Type: biochemical
# reported conditions: read-out: IC50, inhibition of hGOAT activity
# Description: hGOAT was expressed and enriched in insect (Sf9) cell membrane fractions using a previously published procedure. Peptide substrates were labeled with acrylodan on a cysteine thiol and HPLC purified as previously reported. hGOAT activity assays were performed using a modification of previously reported protocols. […] Assays were performed with ˜100 μg of membrane protein, as determined by Bradford assay. […] The supernatant was then analyzed by reverse phase HPLC, as previously described. […]

Example entries and their recorded answers appear below.
[[record]]
compound = "CCNC(=O)[C@]12CCC(C)(C)C[C@H]1[C@H]1C(=O)C=C3[C@@]4(C)C=C(C#N)C(=O)C(C)(C)[C@@H]4CC[C@@]3(C)[C@]1(C)CC2"
system = "hGOAT (Homo sapiens)"
recorded_value = "8 µM"

[[record]]
compound = "CC1(C)CC[C@]2(C(=O)n3ccnc3)CC[C@]3(C)[C@H](C(=O)C=C4[C@@]5(C)C=C(C#N)C(=O)C(C)(C)[C@@H]5CC[C@]43C)[C@@H]2C1 [CDDO-Im, reference compound]"
system = "hGOAT (Homo sapiens)"
recorded_value = "38 µM"


Proceeding to the next compound to report its IC50.
// field: IC50; key: C[C@@]12CCC[C@H]1[C@@H]1CC[C@H]3CC(=O)C(C#N)=C[C@]3(C)[C@H]1CC2 ; value = 8 µM
